TESTED_ON: NMDA receptor GRIN1/GRIN2B (NR2B) expressed in HEK293 cells (Homo sapiens)
Construct: host or cells: HEK293
Sequence (Q13224 27-1484, other chains not shown): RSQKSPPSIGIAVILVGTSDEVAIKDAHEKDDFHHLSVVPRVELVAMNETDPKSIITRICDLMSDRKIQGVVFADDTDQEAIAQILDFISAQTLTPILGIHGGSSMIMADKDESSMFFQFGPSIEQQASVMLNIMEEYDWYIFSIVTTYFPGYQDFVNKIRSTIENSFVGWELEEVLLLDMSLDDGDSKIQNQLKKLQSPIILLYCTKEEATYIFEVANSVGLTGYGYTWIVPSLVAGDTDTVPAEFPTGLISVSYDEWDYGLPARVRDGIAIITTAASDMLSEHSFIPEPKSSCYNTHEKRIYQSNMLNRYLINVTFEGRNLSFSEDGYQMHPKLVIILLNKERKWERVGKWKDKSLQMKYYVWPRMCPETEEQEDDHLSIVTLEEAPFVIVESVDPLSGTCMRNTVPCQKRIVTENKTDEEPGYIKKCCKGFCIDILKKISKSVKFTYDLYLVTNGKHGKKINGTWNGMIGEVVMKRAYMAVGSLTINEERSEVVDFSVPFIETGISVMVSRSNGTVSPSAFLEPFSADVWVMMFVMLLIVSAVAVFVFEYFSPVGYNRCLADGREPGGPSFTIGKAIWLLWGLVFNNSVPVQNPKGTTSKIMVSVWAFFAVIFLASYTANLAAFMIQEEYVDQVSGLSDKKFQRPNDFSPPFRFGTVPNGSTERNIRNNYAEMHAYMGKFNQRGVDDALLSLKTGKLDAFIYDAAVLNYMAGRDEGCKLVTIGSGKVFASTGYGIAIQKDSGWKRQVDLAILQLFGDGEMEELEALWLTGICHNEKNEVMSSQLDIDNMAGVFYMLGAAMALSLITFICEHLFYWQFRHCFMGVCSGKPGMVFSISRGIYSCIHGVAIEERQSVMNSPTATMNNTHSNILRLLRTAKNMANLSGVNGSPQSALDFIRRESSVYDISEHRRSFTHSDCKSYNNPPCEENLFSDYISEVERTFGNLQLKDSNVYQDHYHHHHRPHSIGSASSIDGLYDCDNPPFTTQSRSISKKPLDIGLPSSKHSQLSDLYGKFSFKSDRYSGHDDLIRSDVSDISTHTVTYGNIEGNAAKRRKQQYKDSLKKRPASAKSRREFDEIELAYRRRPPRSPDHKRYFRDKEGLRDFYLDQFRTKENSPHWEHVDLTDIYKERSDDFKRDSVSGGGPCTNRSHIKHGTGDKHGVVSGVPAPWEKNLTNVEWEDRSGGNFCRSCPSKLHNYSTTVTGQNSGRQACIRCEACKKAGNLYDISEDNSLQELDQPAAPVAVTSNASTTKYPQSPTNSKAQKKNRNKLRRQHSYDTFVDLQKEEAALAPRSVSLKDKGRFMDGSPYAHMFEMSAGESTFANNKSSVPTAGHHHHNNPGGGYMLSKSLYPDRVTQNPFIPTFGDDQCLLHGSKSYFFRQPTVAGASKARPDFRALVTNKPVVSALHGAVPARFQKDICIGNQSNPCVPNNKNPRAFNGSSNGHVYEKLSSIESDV
PROTOCOL_TEXT: Reversal of Ro 25-6981-mediated suppression of the Ca2+ response (fluo-8 fluorescence, FDSS) in HEK293 cells expressing GRIN1 and GRIN2B
Format: cell-based
EXPERIMENTAL_SETUP: % reversal=100*(R−Rneg)/(Rpos−Rneg) of Ro 25-6981 suppression of co-agonist (glutamate/glycine) Ca2+ response, 10 min pre-incubation, compound concentration not given
QUANTITY: Response Recovered (%)

P: COc1ccc(-c2csc3ncn(CC(=O)N4CCCC4)c(=O)c23)cc1
Q: CN(C)/C=N/n1cnc2scc(-c3ccc(Cl)c(C(F)(F)F)c3)c2c1=O
## Input Just tell me: smaller Response Recovered (%) value, P or Q ? Use the label to indicate which entry you chose.
## Output P
(P: 5%, Q: 14%)

a: O=C(CCn1cnc2scc(-c3ccc(Cl)c(C(F)(F)F)c3)c2c1=O)N1CCCC1
b: O=C(Cn1cnc2sc(-c3ccc(Cl)cc3)cc2c1=O)N1CCC(F)(F)CC1
## Input Select the item with the higher value of Response Recovered (%) from the options a and b listed. Use the label to indicate which entry you chose.
## Output b
(b: 13%, a: 6%)

###

TESTED_ON: NMDA receptor GRIN1/GRIN2B (NR2B) expressed in HEK293 cells (Homo sapiens)
Construct: host or cells: HEK293
PROTOCOL_TEXT: Reversal of Ro 25-6981-mediated suppression of the Ca2+ response (fluo-8 fluorescence, FDSS) in HEK293 cells expressing GRIN1 and GRIN2B
Format: cell-based
EXPERIMENTAL_SETUP: % reversal=100*(R−Rneg)/(Rpos−Rneg) of Ro 25-6981 suppression of co-agonist (glutamate/glycine) Ca2+ response, 10 min pre-incubation, compound concentration not given
QUANTITY: Response Recovered (%)

COMPOUND | UNIT_STRING | Response Recovered (%)
O=C(Cn1cnc2scc(-c3ccc(C(F)(F)F)c(Cl)c3)c2c1=O)N1CCC(F)C1 (centres unmarked) | % | 62
O=C(Cn1cnc2scc(-c3ccc(Cl)c(C(F)(F)F)c3)c2c1=O)N1CCC(F)C1 (centres unmarked) | % | 93
O=C(Cn1cnc2scc(-c3ccc(F)cc3)c2c1=O)N1CCCC1C(F)(F)F (centres unmarked) | % | 7

a: COc1ccc(-c2csc3ncn(CC(=O)N4CCCC4)c(=O)c23)cn1
b: O=C(On1cnc2scc(-c3ccc(Cl)c(C(F)(F)F)c3)c2c1=O)N1CCCC1
## Input Select the item with the higher value of Response Recovered (%) from the options a and b listed. Use the label to indicate which entry you chose.
## Output b

a: O=C(Nn1cnc2scc(-c3ccc(Cl)c(C(F)(F)F)c3)c2c1=O)C1CCCC1
b: O=C(Cn1cnc2scc(-c3ccc(Cl)c(Cl)c3)c2c1=O)N1CC[C@@H](F)C1
c: N#Cc1ccc(-c2csc3ncn(CC(=O)N4CCCC4)c(=O)c23)cc1
## Input Endpoint returns the given compounds ordered by ascending Response Recovered (%). The labels, placed in the requested order, form the answer.
## Output c, a, b

1: O=C(Cn1c(C(F)(F)F)nc2scc(-c3ccc(Cl)cc3)c2c1=O)N1CCCC1
2: Cc1sc2ncn(CC(=O)N3CCCC3)c(=O)c2c1-c1ccc(Cl)c(C(F)(F)F)c1
3: CN1CCC(NC(=O)Cn2cnc3scc(-c4ccc(Cl)cc4)c3c2=O)C1 (centres unmarked)
## Input Endpoint returns the given compounds ordered by ascending Response Recovered (%). The labels, placed in the requested order, form the answer.
## Output 1, 3, 2
(1: −1%, 3: 3%, 2: 15%)

P: O=C(Cn1cnc2scc(-c3cnc(F)c(Cl)c3)c2c1=O)N1CC(F)C(F)C1 (centres unmarked)
Q: O=C(Cn1cnc2scc(-c3ccnc(C(F)(F)F)c3)c2c1=O)N1CCCC1
## Input Just tell me: smaller Response Recovered (%) value, P or Q ? Use the label to indicate which entry you chose.
## Output Q
(Q: −1%, P: 11%)

These entries and their values trace back to patent US11541057B2.
